Source listed as patent US20140274782A1.

measured-on: T1, G9a and GLP (Homo sapiens, UniProt Q96KQ7+Q9H9B1)
T1 sequence (Q96KQ7 2-1210 limits assumed): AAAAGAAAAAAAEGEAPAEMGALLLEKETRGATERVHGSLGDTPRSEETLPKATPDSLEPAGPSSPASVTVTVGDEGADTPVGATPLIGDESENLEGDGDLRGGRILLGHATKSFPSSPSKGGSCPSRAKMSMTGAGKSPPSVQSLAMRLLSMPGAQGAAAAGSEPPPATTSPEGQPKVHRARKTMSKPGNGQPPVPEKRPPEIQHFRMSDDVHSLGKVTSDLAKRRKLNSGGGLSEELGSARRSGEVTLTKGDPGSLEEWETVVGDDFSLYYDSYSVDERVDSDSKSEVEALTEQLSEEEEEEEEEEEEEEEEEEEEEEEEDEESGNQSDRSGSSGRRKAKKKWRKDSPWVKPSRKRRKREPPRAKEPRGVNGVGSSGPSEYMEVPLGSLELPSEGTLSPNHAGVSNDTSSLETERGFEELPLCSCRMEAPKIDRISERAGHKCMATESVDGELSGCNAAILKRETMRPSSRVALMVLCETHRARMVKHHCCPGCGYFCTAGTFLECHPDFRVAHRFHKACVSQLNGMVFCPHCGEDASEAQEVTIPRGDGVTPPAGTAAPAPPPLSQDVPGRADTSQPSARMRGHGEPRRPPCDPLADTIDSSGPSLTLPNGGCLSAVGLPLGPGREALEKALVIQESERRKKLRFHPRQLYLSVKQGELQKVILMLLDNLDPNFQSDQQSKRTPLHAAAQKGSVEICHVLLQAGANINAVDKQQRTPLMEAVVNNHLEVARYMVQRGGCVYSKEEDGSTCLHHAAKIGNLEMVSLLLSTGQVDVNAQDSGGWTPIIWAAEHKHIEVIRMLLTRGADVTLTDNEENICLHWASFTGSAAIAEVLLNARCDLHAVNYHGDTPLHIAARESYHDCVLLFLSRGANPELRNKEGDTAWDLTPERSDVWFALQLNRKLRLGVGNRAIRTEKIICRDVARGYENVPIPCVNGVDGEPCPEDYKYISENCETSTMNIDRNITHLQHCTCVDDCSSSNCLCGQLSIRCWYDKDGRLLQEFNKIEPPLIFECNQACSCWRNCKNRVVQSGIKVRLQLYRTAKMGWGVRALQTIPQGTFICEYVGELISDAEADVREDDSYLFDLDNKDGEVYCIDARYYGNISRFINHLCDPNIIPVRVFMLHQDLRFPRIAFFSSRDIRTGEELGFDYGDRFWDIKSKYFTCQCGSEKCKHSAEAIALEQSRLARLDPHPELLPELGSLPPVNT
T1 sequence (Q9H9B1 2-1298 limits assumed): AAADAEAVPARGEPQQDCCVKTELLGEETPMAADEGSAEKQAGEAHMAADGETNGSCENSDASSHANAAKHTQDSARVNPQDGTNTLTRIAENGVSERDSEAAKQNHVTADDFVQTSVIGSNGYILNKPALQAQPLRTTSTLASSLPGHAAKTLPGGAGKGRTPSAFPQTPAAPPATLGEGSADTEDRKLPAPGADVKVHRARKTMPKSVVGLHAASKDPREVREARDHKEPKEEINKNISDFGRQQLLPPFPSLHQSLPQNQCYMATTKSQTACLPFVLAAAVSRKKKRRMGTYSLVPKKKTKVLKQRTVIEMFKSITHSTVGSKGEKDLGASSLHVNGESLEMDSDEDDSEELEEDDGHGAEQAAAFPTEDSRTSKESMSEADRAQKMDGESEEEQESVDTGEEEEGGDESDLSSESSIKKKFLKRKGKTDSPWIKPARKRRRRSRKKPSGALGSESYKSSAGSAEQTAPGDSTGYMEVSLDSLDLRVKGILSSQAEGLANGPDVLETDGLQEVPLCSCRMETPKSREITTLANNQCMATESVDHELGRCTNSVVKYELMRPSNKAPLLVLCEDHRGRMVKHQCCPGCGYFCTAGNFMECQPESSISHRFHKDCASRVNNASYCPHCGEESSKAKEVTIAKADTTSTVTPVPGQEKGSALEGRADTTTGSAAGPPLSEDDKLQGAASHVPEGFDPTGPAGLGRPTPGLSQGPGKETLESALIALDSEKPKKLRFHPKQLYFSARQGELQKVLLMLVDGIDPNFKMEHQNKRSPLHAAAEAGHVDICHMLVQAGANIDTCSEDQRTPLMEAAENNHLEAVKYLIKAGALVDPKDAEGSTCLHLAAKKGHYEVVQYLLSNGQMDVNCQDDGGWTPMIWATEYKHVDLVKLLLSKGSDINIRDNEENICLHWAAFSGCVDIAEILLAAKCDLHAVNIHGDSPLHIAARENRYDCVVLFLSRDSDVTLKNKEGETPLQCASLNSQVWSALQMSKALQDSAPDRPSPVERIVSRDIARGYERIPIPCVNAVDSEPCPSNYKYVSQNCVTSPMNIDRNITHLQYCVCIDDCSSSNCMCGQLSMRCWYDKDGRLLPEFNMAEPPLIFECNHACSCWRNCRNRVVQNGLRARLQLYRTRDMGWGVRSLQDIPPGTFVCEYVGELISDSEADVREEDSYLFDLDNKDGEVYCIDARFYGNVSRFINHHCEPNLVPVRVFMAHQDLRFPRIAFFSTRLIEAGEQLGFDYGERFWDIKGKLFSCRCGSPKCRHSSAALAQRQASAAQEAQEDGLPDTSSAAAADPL
measurement-protocol: Triple SILAC pull-down after UNC0638 treatment of 293T cells, DMSO/UNC0638 ratio of protein captured by 3×MBT;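 also: mass spectrometry (Q-Exactive) SILAC quantitation, DMSO/UNC0638 ratio computed after subtracting 3×MBTD355N mutant pull-down background, only proteins with at least twofold 3×MBT over mutant signal considered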
Type: cell-based
Parameters: cells were treated for 24 hours with UNC0638 at 2.5 μM or DMSO vehicle control; endogenous in cells; host or cells: HEK 293T
measurement-conditions: SILAC ratio DMSO/UNC0638 of protein pulled down with 3xMBT; UNC0638 in light SILAC media
attribute-measured: Relative to UNC0638 UNC Light (log base 2)
Respond with the bare value in log base 2.

Record excerpt, results attached:
PEF1 (protein, UniProt Q9UBV8 1-284, looked up) Peflin: MASYPYRQGCPGAAGQAPGAPPGSYYPGPPNSGGQYGSGLPPGGGYGGPAPGGPYGPPAGGGPYGHPNPGMFPSGTPGGPYGGAAPGGPYGQPPPSSYGAQQPGLYGQGGAPPNVDPEAYSWFQSVDSDHSGYISMKELKQALVNCNWSSFNDETCLMMINMFDKTKSGRIDVYGFSALWKFIQQWKNLFQQYDRDRSGSISYTELQQALSQMGYNLSPQFTQLLVSRYCPRSANPAMQLDRFIQVCTQLQVLTEAFREKDTAVQGNIRLSFEDFVTMTASRML | 0.17
SEPT2 (protein, UniProt Q15019 1-361, looked up) Septin-2: MSKQQPTQFINPETPGYVGFANLPNQVHRKSVKKGFEFTLMVVGESGLGKSTLINSLFLTDLYPERVIPGAAEKIERTVQIEASTVEIEERGVKLRLTVVDTPGYGDAINCRDCFKTIISYIDEQFERYLHDESGLNRRHIIDNRVHCCFYFISPFGHGLKPLDVAFMKAIHNKVNIVPVIAKADTLTLKERERLKKRILDEIEEHNIKIYHLPDAESDEDEDFKEQTRLLKASIPFSVVGSNQLIEAKGKKVRGRLYPWGVVEVENPEHNDFLKLRTMLITHMQDLQEVTQDLHYENFRSERLKRGGRKVENEDMNKDQILLEKEAELRRMQEMIARMQAQMQMQMQGGDGDGGALGHHV | 0.12

// lookup Relative to UNC0638 UNC Light for RBM3 (protein, UniProt P98179 1-157, looked up) RNA-binding protein 3: MSSEEGKLFVGGLNFNTDEQALEDHFSSFGPISEVVVVKDRETQRSRGFGFITFTNPEHASVAMRAMNGESLDGRQIRVDHAGKSARGTRGGGFGAHGRGRSYSRGGGDQGYGSGRYYDSRPGGYGYGYGRSRDYNGRNQGGYDRYSGGNYRDNYDN 0.33
